This collection of values is drawn from patent US20200017592A1.

We begin with a simple list: items and their reported koff.
Biological target: T1, recombinant human IL-36R extracellular domain expressed with a C-terminal myc-myc-hexahistidine tag (human, UniProt Q9HB29 20-337)
T1 construct: also called hIL-36R-MMH; hIL-36R.mmH
T1 sequence (Q9HB29 other isoform, or with tags, fused parts or gaps limits assumed): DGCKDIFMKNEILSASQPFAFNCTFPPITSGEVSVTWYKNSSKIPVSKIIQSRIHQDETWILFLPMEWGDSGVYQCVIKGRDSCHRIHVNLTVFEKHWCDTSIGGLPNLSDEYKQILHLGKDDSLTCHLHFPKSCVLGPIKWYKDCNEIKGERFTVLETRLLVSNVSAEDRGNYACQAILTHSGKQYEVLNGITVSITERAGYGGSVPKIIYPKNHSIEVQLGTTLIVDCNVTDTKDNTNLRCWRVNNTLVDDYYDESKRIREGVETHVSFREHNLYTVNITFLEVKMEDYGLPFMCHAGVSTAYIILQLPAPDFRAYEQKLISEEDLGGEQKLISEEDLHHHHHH
Assay: SPR (Biacore 4000), mAb captured on anti-human Fc, 37°C

binder: H4H14709P (antibody, human IgG4 S228P, kappa, V domains shown) VH: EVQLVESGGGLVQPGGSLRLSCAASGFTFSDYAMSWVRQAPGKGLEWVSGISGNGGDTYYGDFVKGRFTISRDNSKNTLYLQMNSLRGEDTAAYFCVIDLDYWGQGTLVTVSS VL: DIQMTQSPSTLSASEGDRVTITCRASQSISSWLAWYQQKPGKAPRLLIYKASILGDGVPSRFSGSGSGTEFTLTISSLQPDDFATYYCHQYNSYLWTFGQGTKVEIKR
koff (s⁻¹): 0.000554
//
binder: H4H14731P (antibody, human IgG4 S228P, kappa, V domains shown) VH: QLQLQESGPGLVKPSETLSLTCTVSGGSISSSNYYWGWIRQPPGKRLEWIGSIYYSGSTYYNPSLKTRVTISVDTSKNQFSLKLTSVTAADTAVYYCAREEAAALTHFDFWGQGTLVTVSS VL: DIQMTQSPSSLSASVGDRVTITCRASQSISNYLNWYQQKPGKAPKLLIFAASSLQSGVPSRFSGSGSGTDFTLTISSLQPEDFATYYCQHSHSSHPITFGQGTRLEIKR
koff (s⁻¹): 0.000971
